- assay.notes: small-molecule microarray binders of probe aXIP, primary screen, biochemical, NeuroSMM set, 635/667 nm fluorescence (AID 1119);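 note: probe is the protein aXip251-270 applied at 1 µg/mL to compound-printed slides; binding of probe to printed compounds measured as 667 nm fluorescence plus signal to noise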
- particulars: higher = more signal, called active from +8 up or from −8 down
Please provide measured composite Z-score for the entries that follow.
Give bare numbers.

Worked set:
[
  {
    "test.smiles": "Cc1ccc(S[C@]2(C(=O)NCC(C)C)CC(=O)N(Cc3ccccc3)[C@@H]2c2ccc(CO)cc2I)cc1",
    "measurement.kind": "composite Z-score",
    "test.value": 0.552
  },
  {
    "test.smiles": "Cc1ccc([C@H]2C(C(=O)O)=C[C@@H](C)N2S(=O)(=O)c2ccc(C)cc2)cc1",
    "measurement.kind": "composite Z-score",
    "test.value": 0.24
  },
  {
    "test.smiles": "C=C[C@H](COC(C)=O)N(Cc1ccc(OC(C)=O)c(OC)c1)S(=O)(=O)c1ccc(Br)cc1",
    "measurement.kind": "composite Z-score",
    "test.value": 0.365
  },
  {
    "test.smiles": "COC(=O)C[C@@H]1C[C@H](C)[C@]2(O1)C(=O)N(Cc1ccccc1)c1ccc(NC(C)=O)cc12",
    "measurement.kind": "composite Z-score",
    "test.value": -0.209
  },
  {
    "test.smiles": "Cc1ccc(S[C@]2(C(=O)NCC(C)C)CC(=O)N(Cc3ccccc3Cl)[C@@H]2c2ccc(CO)cc2)cc1",
    "measurement.kind": "composite Z-score",
    "test.value": -0.12
  },
  {
    "test.smiles": "C=C[C@H](C)[C@@H](O)c1ccc(O)c2ccccc12",
    "measurement.kind": "composite Z-score",
    "test.value": 0.681
  },
  {
    "test.smiles": "COc1ccc([Si](C)(C)[C@@H]2[C@@H](CC(=O)N(CCO)Cc3ccccc3)O[C@]3(C(=O)N(C)c4ccccc43)[C@H]2C)cc1",
    "measurement.kind": "composite Z-score",
    "test.value": 0.26
  },
  {
    "test.smiles": "O=C1c2ccccc2[C@@]2(Cc3ccccc3N(Cc3ccccc3)C2=O)[C@H](c2ccc(CO)cc2)N1C1CCCCC1",
    "measurement.kind": "composite Z-score",
    "test.value": 0.0066
  }
]

Output measured composite Z-score for this item: O=C/C=C/c1ccc2c(c1)OCO2 0.16

* * *

Please provide measured z-score for the entries that follow.
- assay.notes: Plasmodium falciparum growth inhibition, primary screen, strain 3D7, DAPI fluorescence, 100 nL (AID 1184);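 note: parasites grown inside human red blood cells in medium with human serum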
- particulars: P. falciparum 3D7 growth, 3 d, higher = more signal

Worked set:
[
  {
    "molecule": "COCCOC(=O)N1C(=O)[C@@]2(c3cc(C#CCC(C(=O)OC)C(=O)OC)ccc31)[C@H](c1ccc(O)cc1)N1[C@H](c3ccccc3)[C@H](c3ccccc3)OC(=O)[C@H]1[C@@H]2C(N)=O",
    "z-score": -0.486
  },
  {
    "molecule": "CCOc1cc(C(O)C2C=CC3C(=O)N(c4ccccc4)C(=O)C3N2Nc2ccc([N+](=O)[O-])cc2)ccc1O (stereo not drawn)",
    "z-score": -1.76
  }
]

Now for the molecule whose z-score we want.
Output measured z-score for this item: CCCN1C(=O)[C@@]2(CCC(=O)OC(C)(C)C)N=C(c3ccc(OCCCO)cc3)O[C@H]2c2ccccc21 -2.31

* * *

Please provide measured z-score for the entries that follow.
- assay.notes: PSAC antagonists in infected red cells, primary screen, cell-based, P. falciparum Indochina, OD700, 2 h (AID 1155);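 note: lysis reports solute entry through the parasite surface anion channel PSAC; channel blockers reduce lysis of infected cells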
- particulars: P. falciparum Indochina infected erythrocytes, osmotic lysis OD700; higher = more signal, called active from +8 up or from −8 down
Answers are plain numbers.

Worked set:
[
  {
    "compound": "CCOC(=O)C1=CCC(c2ccc(C#N)cc2)N(S(=O)(=O)c2ccc(C)cc2)C1 (configuration not stated)",
    "z-score": 1.12
  },
  {
    "compound": "COc1ccc([Si](C)(C)[C@H]2[C@H](CC(=O)N(CCO)Cc3ccccc3)O[C@@]3(C(=O)N(Cc4cccc(N5CCC5=O)c4)c4ccccc43)[C@@H]2C)cc1",
    "z-score": 1.88
  },
  {
    "compound": "CCOC(=O)C[C@H]1[C@H](OC(=O)c2ccc(-c3ccccc3)cc2)[C@@H](NC(=O)c2ccc3ccccc3c2)c2cc(OCCCO)ccc2N1C(=O)Cc1ccc(OC)cc1",
    "z-score": 0.927
  },
  {
    "compound": "[N-]=[N+]=NCc1ccccc1C[C@@]1(C(=O)NCC(O)CO)N=C(c2ccc(OCCCO)cc2)O[C@@H]1c1ccccc1CN=[N+]=[N-] (some centres not stated)",
    "z-score": 14.6
  },
  {
    "compound": "COC(=O)C1=CC(CCCO)=CC(C2CC2)N(Cc2sc3ccccc3c2Cl)C=C1C(=O)OC (configuration not stated)",
    "z-score": 2.09
  }
]

For every item below, please supply its z-score.
1. O=C1c2ccccc2[C@@]2(Cc3ccccc3N(Cc3ccccc3)C2=O)[C@H](c2ccc(CO)cc2)N1C1CCCCC1
2. CC1=C2[C@@H](CCc3ccccc3)OB(O)C[C@@H]2n2c(=O)n(-c3ccccc3)c(=O)n2C1

1: 0.546; 2: 0.323

* * *

- assayed.target: NADPH oxidase 5 (Homo sapiens)
- assay.notes: NOX5-dependent H2O2 signal modulators, primary screen, NOX inhibitor project, cell-based, HEK293-NOX5, Amplex Red fluorescence (AID 1161)
- particulars: HEK293-NOX5, ionomycin, 45 min, higher = more signal
Please provide measured z-score for the entries that follow.
Answers are plain numbers.

Worked set:
[
  {
    "compound": "CC(C)NC(=O)[C@@H]1c2ccccc2C(=O)N(Cc2ccccc2)[C@H]1c1ccc(CO)cc1",
    "measurement.kind": "z-score",
    "test.value": -1.66
  },
  {
    "compound": "C=CCC(OC(C)=O)[C@@H]1[C@@H](N(Cc2ccc(-c3ccccc3)cc2)C(=O)Cc2ccc(OC)cc2)c2cc(OCCCO)ccc2N1C(=O)c1ccc2ccccc2n1 (stereo not given in full)",
    "measurement.kind": "z-score",
    "test.value": 2.5
  },
  {
    "compound": "C=CC[C@@]1(C(=O)N2CCOCC2)N=C(c2ccc(OCCCO)cc2)O[C@@H]1c1ccccc1N=[N+]=[N-]",
    "measurement.kind": "z-score",
    "test.value": -2.02
  }
]

For every item below, please supply its z-score.
1. C=C[C@@H](COC(C)=O)N(Cc1ccc([N+](=O)[O-])cc1)S(=O)(=O)c1ccc(Br)cc1
2. C[C@]1(C(=O)NCc2ccccc2)c2ccccc2C(=O)N(Cc2cc(F)cc(C(F)(F)F)c2)[C@H]1c1ccc(CO)cc1
3. COCCOC(=O)N1C(=O)[C@@]2(c3cc(C#CCC(C(=O)OC)C(=O)OC)ccc31)[C@H](C(=O)N1CCCCCCC1)[C@H]1C(=O)O[C@H](c3ccccc3)[C@H](c3ccccc3)N1[C@@H]2c1ccc(OCCO)cc1
4. C=CCNC(=O)[C@@H]1[C@H]2C(=O)O[C@H](c3ccccc3)[C@H](c3ccccc3)N2[C@H](c2ccccc2OCCO)[C@@]12C(=O)Nc1ccc(C#CC3=CCCCC3)cc12
5. O=C1C2C=CC(C(O)c3ccc(B(O)O)cc3)N(Nc3ccccc3)C2C(=O)N1c1ccccc1 (stereo not given)

1: -0.559; 2: -0.151; 3: 0.547; 4: -4.4; 5: -7.63

* * *

- assayed.target: Fibroblast growth factor 10 (Homo sapiens)
- assay.notes: FGF10 binders on small-molecule microarrays, primary screen, biochemical, small-molecule microarray, 635 nm fluorescence (AID 1102)
- particulars: FGF10 binding, fluorescence 635 nm, higher = more signal
measurement.kind: composite z-score

Worked set:
[
  {
    "compound": "COCCOC(=O)N1C(=O)[C@@]2(c3cc(C#CCC(C(=O)OC)C(=O)OC)ccc31)[C@H](c1ccccc1OCCO)N1[C@H](c3ccccc3)[C@H](c3ccccc3)OC(=O)[C@H]1[C@@H]2C(=O)N1CCc2cc(OC)c(OC)cc2C1",
    "composite z-score": 1.16
  },
  {
    "compound": "C[C@H]1NC(=O)[C@H](Cc2ccccc2)NC(=O)[C@@]23C(=O)N[C@@H](Cc4ccccc4)C2[C@H](C)[C@@]2(C)O[C@H]2C3/C=C/C/C=C\\CNC1=O (stereo partly drawn)",
    "composite z-score": -0.354
  }
]

Send back Fibroblast growth factor 10 (Homo sapiens) composite z-score of C=CCC(OC(C)=O)[C@@H]1[C@@H](N(Cc2cccc3ccccc23)C(=O)c2cccc3ccccc23)c2cc(OCCCO)ccc2N1C(=O)c1ccc2ccccc2n1 (stereo partly drawn) only. 0.635

* * *

Please provide measured composite z-score for the entries that follow.
- assayed.target: Follistatin (Homo sapiens)
- assay.notes: follistatin binders on small-molecule microarrays, primary screen, biochemical, small-molecule microarray, 635/667 nm fluorescence (AID 1132)
- particulars: FST binding, 635 nm fluorescence, higher = more signal
Numbers only.

For every item below, please supply its composite z-score.
1. CCCC[C@@H]1C[C@H]1[C@@H](NC(=O)c1ccc(-c2ccccc2)cc1)c1ccc(-c2ccccc2)cc1
2. COCCOC(=O)N1C(=O)[C@@]2(c3cc(C#CCCO)ccc31)[C@H](c1ccccc1OCCO)N1[C@H](c3ccccc3)[C@H](c3ccccc3)OC(=O)[C@H]1[C@@H]2C(=O)N1CCN(c2ncccn2)CC1
3. COC(=O)C(CC#Cc1ccc2c(c1)[C@]1(C(=O)N2)[C@H](C(=O)NC[C@H](O)c2ccccc2)[C@H]2C(=O)O[C@H](c3ccccc3)[C@H](c3ccccc3)N2[C@@H]1c1ccc(OCCO)cc1)C(=O)OC

1: 1.37; 2: 1.32; 3: 1.25
